# procedure-text: growth effects on S. cerevisiae YJM789 – YJM789 clinical isolate, OD600, 24 h, basal, primary screen (AID 1089);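 also: growth of clinical yeast isolate S. cerevisiae YJM 789 seeded 1000 cells per well; test concentration not given here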
# applied-conditions: called active from +8 up or from −8 down
Calls of active or inactive are those of the source.
Possible outcomes: 1 (yes) = active, 0 (no) = inactive

[
  {
    "compound": "COC(=O)[C@@]1(Cc2ccccc2)[C@H]2c3cc(C(=O)N4CCCC4)n(Cc4ccc(O)c(OC)c4)c3C[C@H]2CN1C(=O)c1ccccc1",
    "category-label": "0 (no)"
  },
  {
    "compound": "C=C(CCCC)C(=O)CC[C@@H](OC(C)=O)c1ccc(CO)o1",
    "category-label": "0 (no)"
  },
  {
    "compound": "CCCC[C@@H]1C[C@H]1[C@@H](NC(=O)c1cccnc1)c1ccc(Cl)cc1",
    "category-label": "1 (yes)"
  },
  {
    "compound": "C[C@H]1C2[C@H](Cc3ccccc3)NC(=O)[C@]23C(=O)NCC(=O)N2CCC[C@H]2C(=O)NC/C=C/CCC/C=C/C3[C@@H]2O[C@]12C (stereo not given in full)",
    "category-label": "0 (no)"
  },
  {
    "compound": "COc1ccc(C(=O)Nc2ccc(CN3C(=O)[C@]4(O[C@H](CC(=O)N5CCC[C@H]5CO)[C@@H]([Si](C)(C)c5ccc(OC)cc5)[C@@H]4C)c4ccccc43)cc2)cc1",
    "category-label": "0 (no)"
  },
  {
    "compound": "CC(C)(C)OC(=O)CC[C@]1(C(=O)NCCN2CCOCC2)COC(c2ccc(OCCCO)cc2)=N1",
    "category-label": "0 (no)"
  },
  {
    "compound": "COc1ccc(C(O)C2C=CC3C(=O)N(C)C(=O)C3N2NC(=O)OC(C)(C)C)c2ccccc12 (stereo not given)",
    "category-label": "0 (no)"
  },
  {
    "compound": "O=C1NC(=O)C2C1C=CC(C(O)c1ccc(-c3ccccc3)s1)N2Nc1ccc(Cl)cc1Cl (stereo not given)",
    "category-label": "0 (no)"
  },
  {
    "compound": "COCCOC(=O)N1C(=O)[C@@]2(c3ccccc31)[C@H](C(=O)N1CCCCCCC1)[C@H]1C(=O)O[C@H](c3ccccc3)[C@H](c3ccccc3)N1[C@@H]2c1ccc(OCCO)cc1",
    "category-label": "0 (no)"
  },
  {
    "compound": "COc1ccc([Si](C)(C)[C@@H]2[C@@H](CC(=O)N3Cc4ccccc4C[C@H]3CO)O[C@]3(C(=O)N(Cc4cccc(N5CCC5=O)c4)c4ccccc43)[C@H]2C)cc1",
    "category-label": "0 (no)"
  },
  {
    "compound": "O=C1OCCC=C[C@H]2OC34C=CCN(Cn5nnc6ccccc65)C(=O)[C@H]3N(CCO)C(=O)[C@@H]4C12 (stereo not given in full)",
    "category-label": "0 (no)"
  },
  {
    "compound": "COc1ccc([C@H]2OC[C@@H]3CCC(=O)N32)cc1",
    "category-label": "0 (no)"
  },
  {
    "compound": "[N-]=[N+]=Nc1ccccc1[C@H]1OC(c2ccc(OCCCO)cc2)=N[C@@]1(Cc1ccccc1)C(=O)N1CCOCC1",
    "category-label": "0 (no)"
  },
  {
    "compound": "COc1ccccc1CN1C(=O)c2ccccc2[C@@H](C(=O)NCc2ccccc2)[C@@H]1c1ccc(CO)cc1",
    "category-label": "0 (no)"
  },
  {
    "compound": "CC(C)CNC(=O)[C@@]1(Cc2ccccc2I)c2ccccc2C(=O)N(Cc2ccccc2C(F)(F)F)[C@H]1c1ccc(CO)cc1",
    "category-label": "0 (no)"
  }
]
